test: Quantitative High-Throughput drug screen in 47 multiple myeloma cell lines against the NCATS MIPE library collection: Delta47_JCRB cell viability assay (AID 1918925; also: nearly all actives have a fitted effect of over 45% in size); settings: Delta47 myeloma viability, CellTiter-Glo ATP, 48 h; series mostly up to 45.8 µM
Records with an inconclusive call do not appear. Active and inactive are the calls of the source. Calls follow the shape of the dose curve; as a rule, active = well fitted cell-killing curve with a large enough effect; inconclusive = small, poorly fitted or top-dose-only effect, or effect the other way; inactive = no such curve, though single readings can be large or run the other way.
Response enum: t (active), f (inactive)

Example entries begin here.
query: Entry CNC(=O)CN1CCC(Oc2cc3c(Nc4cccc(Cl)c4F)ncnc3cc2OC)CC1 : call = ?
result: t

query: Entry O=C(CCCCCCNC(=O)c1cnc(N(c2ccccc2)c2ccccc2)nc1)NO : call = ?
result: t

query: Entry Cc1nc2cnc3ccc(C#Cc4cccnc4)cc3c2n1-c1ccc(C(C)(C)C#N)cc1 : call = ?
result: t

---
query: Entry NC(=O)c1c(OCc2c(F)cc(Br)cc2F)nsc1NC(=O)NCCCCN1CCCC1 : call = ?
result: t

query: Entry Cc1cc(Nc2nc(N[C@@H](C)c3ccc(F)cc3)c(C#N)cc2F)n[nH]1 : call = ?
result: t

query: Entry CC(C)c1ccc(Cn2ccc3c4c(N)nc(NC5CC5)nc4ccc32)cc1 : call = ?
result: t

query: Entry Nc1cc(C(F)(F)F)c(-c2cc(N3CCOCC3)nc(N3CCOCC3)n2)cn1 : call = ?
result: t

query: Entry Cc1[nH]c2ccccc2c1CCNCc1ccc(C=CC(=O)NO)cc1 : call = ?
result: t

query: Entry COC(=O)C1=C(C)NC(C)=C(C(=O)OCCN2CCN(C(c3ccccc3)c3ccccc3)CC2)C1c1cccc([N+](=O)[O-])c1 (stereo not given) : call = ?
result: f

query: Entry COc1cc2ncnc(Nc3ccc(F)c(Cl)c3)c2cc1NC(=O)C=CCN1CCCCC1 : call = ?
result: t

query: Entry CCOC(=O)C1=C(C)NC2=C(C(=O)CC(C)(C)C2)C1c1ccc(-c2ccccc2)cc1 (stereo not given) : call = ?
result: t

query: Entry COc1ccc(OC)c(-c2nnc3ccc(-c4ccc(OC)c(O[C@@H]5CCOC5)c4)nn23)c1 : call = ?
result: t

query: Entry COc1cc2ncn(-c3cc(OCc4ccccc4C(F)(F)F)c(C(N)=O)s3)c2cc1OC : call = ?
result: t

query: Entry O=C(Nc1cn[nH]c1-c1nc2ccc(CN3CCOCC3)cc2[nH]1)NC1CC1 : call = ?
result: t

query: Entry Nc1ccn([C@@H]2CS[C@H](CO)O2)c(=O)n1 : call = ?
result: t

query: Entry COCCOc1ccc2c(c1)ncn2-c1ccc2cccc(N3CCC(N)CC3)c2n1 : call = ?
result: t

query: Entry CCOc1ccccc1OCCNC(C)Cc1ccc(OC)c(S(N)(=O)=O)c1 (stereo not given) : call = ?
result: f

query: Entry Cc1cc(Nc2ncnc3ccc(-c4ccc(CNCCS(C)(=O)=O)o4)cc23)ccc1Oc1ccn2ncnc2c1 : call = ?
result: t

query: Entry Cc1ccc2nc(NC(=O)CSc3nc4c(c(=O)n3-c3ccccc3)SCC4)sc2c1 : call = ?
result: t

query: Entry C=CC(=O)Nc1cc2c(Nc3ccc(F)c(Cl)c3)ncnc2cc1C#CC(C)(C)N1CCN(C)CC1 : call = ?
result: t

Values from PubChem BioAssay (NCATS)
